# Measurement Target: full length active recombinant SYK enzyme (Homo sapiens)
# Construct: full length active recombinant SYK enzyme (Millipore, Calif.)
# Procedure Summary: Inhibition of Syk tyrosine phosphorylation activity (LANCE TR-FRET kinase assay)
# Conditions Used: activity in the Syk assays, class symbols
pIC50: −log10 of the molar value.
pIC50: recorded values

Recorded pIC50, per entry:
CC[C@@H](Nc1cnc(C(N)=O)c(Nc2cccc3ncccc23)n1)C(N)=O
8.00 to 9.00
CC[C@@H](Nc1cnc(C(N)=O)c(Nc2ccc3cnccc3c2)n1)C(N)=O
8.00 to 9.00
NC(=O)c1ncc(N[C@@H]2CCOC[C@@H]2N)nc1Nc1cnc2ccccc2c1
8.00 to 9.00

Problem: Look up and report measured pIC50 (full length active recombinant SYK enzyme (Homo sapiens)) for the following compound: Cc1cc(Nc2nc(N[C@H](CC[S+](C)[O-])C(N)=O)cnc2C(N)=O)sn1 (some centres unmarked)
Solution: 6.00 to 7.00

Problem: Look up and report measured pIC50 (full length active recombinant SYK enzyme (Homo sapiens)) for the following compound: `Cc1cc(Nc2nc(N[C@H]3CN[C@@H](CO)C3)cnc2C(N)=O)sn1`
Solution: 7.00 to 8.00

Problem: Look up and report measured pIC50 (full length active recombinant SYK enzyme (Homo sapiens)) for the following compound: `CC(=O)N1CCC[C@H](Nc2cnc(C(N)=O)c(Nc3cnc4ccccc4c3)n2)C1`
Solution: < 6.00

Problem: Look up and report measured pIC50 (full length active recombinant SYK enzyme (Homo sapiens)) for the following compound: `CC(C)C[C@@H](Nc1cnc(C(N)=O)c(Nc2ccc(C(=O)N3CCC3)nc2)n1)C(N)=O`
Solution: 8.00 to 9.00

Problem: Look up and report measured pIC50 (full length active recombinant SYK enzyme (Homo sapiens)) for the following compound: `NC(=O)c1ncc(N[C@@H]2CCCC[C@@H]2N)nc1Nc1cccc2ncccc12`
Solution: > 9.00
